Provenance of the data: the Immune Epitope Database (IEDB)

system-under-test: HLA-A*02:02
assay-explanation: IEDB peptide-MHC binding, purified MHC/competitive/radioactivity; filed as Kd, often an IC50 or EC50 that approximates it; bounds were set here for any values at or beyond the usual limits of such assays
condition-set: source organism: SARS coronavirus Tor2
metric-name: Kd (nM)
Give the quantity in nM, number only.

[[record]]
record_sequence = "ALLADKFPV"
system_under_test = "HLA-A*02:02"
reported_result = 29.1

[[record]]
record_sequence = "TLMNVITLV"
system_under_test = "HLA-A*02:02"
reported_result = 0.34


# context switch: different sequence, same Kd
Query: // returns reported Kd for input FVFNGTSWFI
Response: 1.01

---

system-under-test: HLA-A*11:01
assay-explanation: IEDB peptide-MHC binding, purified MHC/competitive/radioactivity; filed as Kd, often an IC50 or EC50 that approximates it; bounds were set here for any values at or beyond the usual limits of such assays
condition-set: source organism: Vaccinia virus WR
metric-name: log10(Kd) (log10 of the value in nM)
Log10 applied to Kd; unit prior to transform: nM.

Sample answers from the record:
[[record]]
record_sequence = "SFKLILAEY"
metric_name = "log10(Kd)"
reported_result = 4.13

[[record]]
record_sequence = "RFVEELLHR"
metric_name = "log10(Kd)"
reported_result = 3.54

[[record]]
record_sequence = "ILQLIRHGR"
metric_name = "log10(Kd)"
reported_result = 2.86

[[record]]
record_sequence = "IVSLCPTKK"
metric_name = "log10(Kd)"
reported_result = 1.73

[[record]]
record_sequence = "RASTTENAAY"
metric_name = "log10(Kd)"
reported_result = 2.75


Query: GET /values?readout=log10(Kd)&item= IFNEDTSYY
Response: 3.84

Query: What value of log10(Kd) has been recorded for this entry: CSKHMDARY
Response: 4.00

Query: Given the entry KSIIIPFIAY , report its measured log10(Kd).
Response: 2.40

Query: Give its log10(Kd) value. Item: ILKINSVKY
Response: 4.21

Query: Tell me the measured log10(Kd) of LVKSYSLIR , please.
Response: 3.17

Query: Form field: reported log10(Kd) of LFHGGEPIK
Response: 2.88

Query: Name the recorded log10(Kd) for GVTSSGAIYK .
Response: 1.66

---

system-under-test: HLA-A*33:01
assay-explanation: IEDB peptide-MHC binding, purified MHC/competitive/radioactivity; filed as Kd, often an IC50 or EC50 that approximates it; bounds were set here for any values at or beyond the usual limits of such assays
condition-set: source organism: Vaccinia virus WR
Recorded Kd, one value per entry.
The figure you give is taken to be in nM; do not add the unit.

[[record]]
record_sequence = "KVFSFWLLCK"
metric_name = "Kd"
reported_result = 863

[[record]]
record_sequence = "SSTCSAVTDR"
metric_name = "Kd"
reported_result = 708

[[record]]
record_sequence = "RFVEELLHR"
metric_name = "Kd"
reported_result = 686


Attention now shifts to the item below.
Query: For the sequence shown here, NMVSDTIMKR , give the reported Kd.
Response: 827

---

Overview of reported pKd across a group of sequences:
system-under-test: HLA-A*68:02
assay-explanation: IEDB peptide-MHC binding, purified MHC/competitive/radioactivity; filed as Kd, often an IC50 or EC50 that approximates it; bounds were set here for any values at or beyond the usual limits of such assays
condition-set: source organism: Homo sapiens
pKd: −log10 of the molar value.

# annotated cases, reported pKd shown
[[record]]
record_sequence = "PLEGSEDRII"
reported_result = "≤ 4.19"

[[record]]
record_sequence = "GLDLQPCIDL"
reported_result = "≤ 4.22"


// moving on: another record for pKd
Query: Which measured pKd value corresponds to NMALKKIREL ?
Response: ≤ 4.22

---

Consider the following sequences and their measured Kd readings.
system-under-test: HLA-A*26:01
assay-explanation: IEDB peptide-MHC binding, purified MHC/competitive/radioactivity; filed as Kd, often an IC50 or EC50 that approximates it; bounds were set here for any values at or beyond the usual limits of such assays
condition-set: source organism: SARS coronavirus Tor2

Observe how each entry below is paired with its result.
[[record]]
record_sequence = "SWFITQRNF"
system_under_test = "HLA-A*26:01"
metric_name = "Kd"
reported_result = "≥ 77.9 µM"

[[record]]
record_sequence = "TYTEIEPKL"
system_under_test = "HLA-A*26:01"
metric_name = "Kd"
reported_result = "≥ 77.9 µM"

[[record]]
record_sequence = "NYFKKVDGI"
system_under_test = "HLA-A*26:01"
metric_name = "Kd"
reported_result = "≥ 77.9 µM"

[[record]]
record_sequence = "VYHITVSQI"
system_under_test = "HLA-A*26:01"
metric_name = "Kd"
reported_result = "≥ 77.9 µM"

[[record]]
record_sequence = "SYATHHDKF"
system_under_test = "HLA-A*26:01"
metric_name = "Kd"
reported_result = "≥ 77.9 µM"

[[record]]
record_sequence = "QYIKWPWYVW"
system_under_test = "HLA-A*26:01"
metric_name = "Kd"
reported_result = "≥ 69.7 µM"


Query: Query for HLA-A*26:01: what Kd does the record show for ACADGTRHTY ?
Response: ≥ 86.9 µM

Query: Param readout= Kd; system= HLA-A*26:01; entry= PTLVPQEHY ; returns value.
Response: ≥ 102 µM

---

system-under-test: HLA-A*01:01
assay-explanation: IEDB peptide-MHC binding, purified MHC/competitive/radioactivity; filed as Kd, often an IC50 or EC50 that approximates it; bounds were set here for any values at or beyond the usual limits of such assays
condition-set: source organism: SARS coronavirus Tor2
metric-name: Kd

Below: 3 sequences and their reported Kd.
[[record]]
record_sequence = "VYHITVSQI"
reported_result = "≥ 31.3 µM"

[[record]]
record_sequence = "RMYIFFASF"
reported_result = "≥ 20.9 µM"

[[record]]
record_sequence = "DYLVSTQEF"
reported_result = "≥ 78.1 µM"


Query: Name the reported Kd value associated with the sequence ETLLPLTQY
Response: ≥ 33.1 µM

Query: Report Kd for SWFITQRNF please.
Response: ≥ 78.1 µM

Query: Fill in: Kd of TYTEIEPKL is ___
Response: ≥ 78.1 µM

Query: Entry NYFKKVDGI has what Kd?
Response: ≥ 51.7 µM

Query: // Kd lookup, key: SYATHHDKF
Response: ≥ 39.6 µM

Query: Quick one: Kd of QYIKWPWYVW ?
Response: ≥ 32 µM

---

system-under-test: HLA-A*02:06
assay-explanation: IEDB peptide-MHC binding, purified MHC/competitive/radioactivity; filed as Kd, often an IC50 or EC50 that approximates it; bounds were set here for any values at or beyond the usual limits of such assays
condition-set: source organism: Vaccinia virus WR
List of pKd values.
pKd is defined as minus the log10 of a concentration measured in mol/L.

Previously resolved entries follow.
[[record]]
record_sequence = "VTFINDYANL"
metric_name = "pKd"
reported_result = 6.83

[[record]]
record_sequence = "SVKYYGRST"
metric_name = "pKd"
reported_result = 4.71

[[record]]
record_sequence = "NVDIIDLLL"
metric_name = "pKd"
reported_result = 7.65

[[record]]
record_sequence = "AIFNNRNLAA"
metric_name = "pKd"
reported_result = 6.11

[[record]]
record_sequence = "YLYNKYSFKL"
metric_name = "pKd"
reported_result = 9.85

[[record]]
record_sequence = "IVDSMIIGHI"
metric_name = "pKd"
reported_result = 6.25

[[record]]
record_sequence = "FISSFLLPLT"
metric_name = "pKd"
reported_result = 7.30

[[record]]
record_sequence = "SMSQELAEL"
metric_name = "pKd"
reported_result = 6.73


Query: So what's the measured pKd for this one? AVSVYGAIT
Response: 4.84

---

system-under-test: HLA-A*02:01
assay-explanation: IEDB peptide-MHC binding, purified MHC/competitive/fluorescence; bounds were set here for any values at or beyond the usual limits of such assays
condition-set: source organism: Zaire ebolavirus
metric-name: IC50

[[record]]
record_sequence = "KRTSFFLWV"
system_under_test = "HLA-A*02:01"
reported_result = "≥ 79.6 µM"

[[record]]
record_sequence = "KNISGQSPA"
system_under_test = "HLA-A*02:01"
reported_result = "≥ 228 µM"

[[record]]
record_sequence = "QVSDVDKLV"
system_under_test = "HLA-A*02:01"
reported_result = "≥ 70.7 µM"


Could you now look at the following sequence, please?
Query: // query IC50 value for entry CLHHAYQGD
Response: ≥ 119 µM

---

system-under-test: HLA-B*15:03
assay-explanation: IEDB peptide-MHC binding, purified MHC/competitive/radioactivity; filed as Kd, often an IC50 or EC50 that approximates it; bounds were set here for any values at or beyond the usual limits of such assays
condition-set: source organism: Vaccinia virus WR
metric-name: pKd
Convention used: pKd is expressed as -log10 of the molar concentration.

A selection of reference data follows.
[[record]]
record_sequence = "SQFTCSLAV"
metric_name = "pKd"
reported_result = 8.83

[[record]]
record_sequence = "IKENSIYSF"
metric_name = "pKd"
reported_result = 8.84


Now examine the next entry.
Query: Which measured pKd value corresponds to YQTSVSQVA ?
Response: 8.84
